- SYSTEM NAME: Wee1 (h) (Homo sapiens, UniProt P30291)
- Sequence (P30291 whole entry): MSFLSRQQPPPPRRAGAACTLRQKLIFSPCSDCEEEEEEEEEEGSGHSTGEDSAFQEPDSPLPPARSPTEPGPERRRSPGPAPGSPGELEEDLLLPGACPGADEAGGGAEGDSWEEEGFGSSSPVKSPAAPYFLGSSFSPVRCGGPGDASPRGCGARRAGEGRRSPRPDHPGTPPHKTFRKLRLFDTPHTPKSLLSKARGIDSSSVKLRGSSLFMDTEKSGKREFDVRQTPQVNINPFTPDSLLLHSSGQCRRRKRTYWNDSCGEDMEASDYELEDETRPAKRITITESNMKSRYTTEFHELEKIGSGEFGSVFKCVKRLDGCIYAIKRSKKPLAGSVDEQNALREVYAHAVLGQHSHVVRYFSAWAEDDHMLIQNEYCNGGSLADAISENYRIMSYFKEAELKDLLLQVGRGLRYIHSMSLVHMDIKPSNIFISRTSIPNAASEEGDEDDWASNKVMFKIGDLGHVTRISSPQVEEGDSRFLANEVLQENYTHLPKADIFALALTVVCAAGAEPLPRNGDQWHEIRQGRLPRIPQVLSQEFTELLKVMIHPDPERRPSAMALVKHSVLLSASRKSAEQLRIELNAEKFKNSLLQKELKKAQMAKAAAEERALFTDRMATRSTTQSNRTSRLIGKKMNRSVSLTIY
- EXPERIMENT: Wee1 kinase (h) detection method, [γ-33P]-ATP filter assay
- Assay type: biochemical
- MEASUREMENT CONDITIONS: C 0.01 μm compound
Quick reference: Inh. (%) of Wee1 kinase enzyme activity of the listed items.
Answer with a number only, understood to be in %.

Here are 5 compounds together with their reported answers.
{"RECORD SMILES": "CN1CCCN(c2ccc(Nc3ncc4c(n3)N3CCN=C3N(c3c(F)cccc3Cl)C4=O)cc2)CC1", "Inh. (%) of Wee1 kinase enzyme activity": 30}
{"RECORD SMILES": "CN1CCN(c2c(F)cc(Nc3ncc4c(n3)N3CCN=C3N(c3c(Cl)cccc3Cl)C4=O)cc2Cl)CC1", "Inh. (%) of Wee1 kinase enzyme activity": 42}
{"RECORD SMILES": "COc1cc(Nc2ncc3c(n2)N2CCN=C2N(c2c(F)cccc2Cl)C3=O)cc(C)c1N1CCN(C)CC1", "Inh. (%) of Wee1 kinase enzyme activity": 26}
{"RECORD SMILES": "CN1Cc2cc(Nc3ncc4c(n3)N3CCN=C3N(c3c(Cl)cccc3Cl)C4=O)ccc2C(C)(C)C1", "Inh. (%) of Wee1 kinase enzyme activity": 29}
{"RECORD SMILES": "Cc1cccc(C)c1N1C(=O)c2cnc(Nc3ccc(N4CCN(C)CC4)cc3)nc2N2CCN=C21", "Inh. (%) of Wee1 kinase enzyme activity": 15}

GET /values?readout=Inh. (%) of Wee1 kinase enzyme activity&system=Wee1 (h) (Homo sapiens, UniProt P30291)&item= COc1cc(Nc2ncc3c(n2)N2CCN=C2N(c2c(Cl)cccc2Cl)C3=O)ccc1N1CCN(C)CC1
9

GET /values?readout=Inh. (%) of Wee1 kinase enzyme activity&system=Wee1 (h) (Homo sapiens, UniProt P30291)&item= CN(C)C1CCN(c2c(Cl)cc(Nc3ncc4c(n3)N3CCN=C3N(c3c(Cl)cccc3Cl)C4=O)cc2Cl)CC1
22

----------
- SYSTEM NAME: Wee1 (h) (Homo sapiens)
- EXPERIMENT: Wee1 kinase (h) detection method, [γ-33P]-ATP filter assay
- Assay type: biochemical
- MEASUREMENT CONDITIONS: C 1 μm compound
READOUT LABEL: Inh. (%) of Wee1 kinase enzyme activity
Answer with a number only, understood to be in %.

Here are 6 compounds together with their reported answers.
{"COMPOUND": "CC(=O)N1CCN(c2ccc(Nc3ncc4c(n3)N3CCN=C3N(c3c(F)cccc3Cl)C4=O)cc2)CC1 [Example 7]", "REPORTED MEASUREMENT": 96}
{"COMPOUND": "CN1CCN(c2c(F)cc(Nc3ncc4c(n3)N3CCN=C3N(c3c(Cl)cccc3Cl)C4=O)cc2Br)CC1 [Example 154]", "REPORTED MEASUREMENT": 96}
{"COMPOUND": "Cc1cc(Nc2ncc3c(n2)N2CCN=C2N(c2c(Cl)cccc2Cl)C3=O)cc(Cl)c1N1C[C@@H](C)N(C)[C@@H](C)C1 [Example 137]", "REPORTED MEASUREMENT": 96}
{"COMPOUND": "C[C@@H]1CN(c2ccc(Nc3ncc4c(n3)N3CCN=C3N(c3c(F)cccc3Cl)C4=O)cc2F)C[C@H](C)N1C [Example 45]", "REPORTED MEASUREMENT": 95}
{"COMPOUND": "C[C@@H]1CN(c2ccc(Nc3ncc4c(n3)N3CCN=C3N(c3c(Cl)cccc3Cl)C4=O)cc2F)C[C@H](C)N1C [Example 70]", "REPORTED MEASUREMENT": 99}
{"COMPOUND": "Cc1cc(Nc2ncc3c(n2)N2CCN=C2N(c2c(Cl)cccc2Cl)C3=O)ccc1N1C[C@@H](C)N(C(C)C)[C@@H](C)C1 [Example 78]", "REPORTED MEASUREMENT": 100}

Moving on to another compound below.
Requested read-out: Inh. (%) of Wee1 kinase enzyme activity. Entry: COc1cc(Nc2ncc3c(n2)N2CCN=C2N(c2c(F)cccc2Cl)C3=O)cc(Br)c1N1CCN(C)CC1 [Example 127]
88

Ref: patent US11345711B2
